Biological target: T1, biotin-Aβ1-20 (biotin (position not given))
T1 peptide: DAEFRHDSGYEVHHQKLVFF
Assay: BIACORE, biotin-Aβ1-20 as antigen; column IgG1#1
measure: pKd
Kindly note that pKd refers to -log10 of the concentration in mol/L and answer with the value alone.

binder	quantitative result
20C2-5A, affinity matured humanized 20C2, IgG1 humanized A version (antibody, V domains shown, also called SJ-p2-1F) VH: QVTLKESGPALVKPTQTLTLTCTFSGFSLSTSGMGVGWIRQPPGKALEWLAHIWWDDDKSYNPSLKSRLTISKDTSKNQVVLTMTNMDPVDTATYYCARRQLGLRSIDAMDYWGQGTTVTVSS VL: DVVMTQSPLSLPVTPGEPASISCRSSQSILHSNGNTYLEWYLQKPGQSPQLLIYKVSNRFSGVPDRFSGSGSGTDFTLKISRVEAEDVGVYYCFQSSFVPLTFGQGTKLEIKR	9.04
20C2-23A, affinity matured humanized 20C2, IgG1 humanized A version (antibody, V domains shown, also called 4P1-40) VH: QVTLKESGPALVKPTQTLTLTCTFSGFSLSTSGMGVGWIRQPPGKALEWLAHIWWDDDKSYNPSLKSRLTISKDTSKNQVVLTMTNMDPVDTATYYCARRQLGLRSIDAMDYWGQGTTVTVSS VL: DVVMTQSPLSLPVTPGEPASISCRSSQSILHSNGNTYLEWYLQKPGQSPQLLIYKVSNRFSGVPDRFSGSGSGTDFTLKISRVEAEDVGVYYCHQSSKVPLTFGQGTKLEIKR	9.19

Here's the next entry for you.
Ask: State its pKd: 20C2-20A, affinity matured humanized 20C2, IgG1 humanized A version (antibody, V domains shown, also called SJ-p3-15) VH: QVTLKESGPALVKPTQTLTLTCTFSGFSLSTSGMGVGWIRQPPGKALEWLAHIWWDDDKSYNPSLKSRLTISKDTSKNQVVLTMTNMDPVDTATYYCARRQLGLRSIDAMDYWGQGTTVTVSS VL: DVVMTQSPLSLPVTPGEPASISCRSSQSILHSNGNTYLEWYLQKPGQSPQLLIYKVSNRFSGVPDRFSGSGSGTDFTLKISRVEAEDVGVYYCFQGSLFPPVFGQGTKLEIKR
Reply: 7.68
